Catalogue of pIC50 readings, one per entry.
studyTarget: glucocorticoid receptor (GAL4 DBD-GR) (Homo sapiens (Human), UniProt P04150)
Sequence (P04150 524-758): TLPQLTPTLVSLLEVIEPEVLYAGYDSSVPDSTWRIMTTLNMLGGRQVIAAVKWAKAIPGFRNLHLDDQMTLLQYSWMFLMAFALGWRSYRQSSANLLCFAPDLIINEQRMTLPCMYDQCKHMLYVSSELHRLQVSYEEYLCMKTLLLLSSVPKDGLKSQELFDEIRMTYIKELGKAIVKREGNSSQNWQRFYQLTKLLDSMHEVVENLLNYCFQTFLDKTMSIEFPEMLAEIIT
assayText: GR cell-based assays (GRE agonist / GRE antagonist), CHO-Gal4/GR luciferase reporter
assayConditions: read-out: IC50 or EC50
pIC50: −log10 of the molar value.

Suppose we examine the compound Cc1cc(C(=O)N[C@@H]2[C@@H](c3ccccc3)N(c3ccc4c(cnn4-c4ccc(=O)n(C)c4)c3)C(=O)C2(C)C)no1 [Example 7] ; what pIC50 value has been reported?
4.82 to 6.00

# iterate: Cc1ncsc1C(=O)N[C@H]1[C@H](C)C(=O)N(c2ccc3c(cnn3-c3ccc(F)cc3)c2)[C@@H]1c1ccc(Cl)s1 (racemic) [Example 113]
6.00 to 7.00

What about C[C@@H]1C(=O)N(c2ccc3c(cnn3-c3ccc(F)cc3)c2)[C@H](c2ccc(Cl)s2)[C@H]1NC(=O)C(C)(F)F (racemic) [Example 123] ?
> 7.00

Also, C[C@@H]1C(=O)N(c2ccc3c(cnn3-c3ccc(F)cc3)c2)[C@H](c2ccccc2Cl)[C@H]1NC(=O)c1cccnc1 (racemic) [Example 92] please.
> 7.00

One more compound: COc1ccc([C@@H]2[C@@H](NC(=O)C3CC3)[C@H](C)C(=O)N2c2ccc3c(cnn3-c3ccc(F)cc3)c2)cc1 (racemic) [Example 133]
6.00 to 7.00

// next record Cn1cc(C(=O)N[C@H]2[C@H](c3ccccc3)N(c3ccc4c(cnn4-c4ccc(F)cc4)c3)C(=O)C2(C)C)cn1 [Example 41b]
4.82 to 6.00

* * *

studyTarget: UniProt P04150
assayText: GR cell-based assays (GRE agonist / GRE antagonist), CHO-Gal4/GR luciferase reporter
assayConditions: read-out: IC50 or EC50
pIC50: −log10 of the molar value.
assayReadout: pIC50

Reference set (6 entries):
[
  {
    "compound": "Cc1cccc([C@@H]2[C@@H](NC(=O)c3cccnc3)[C@@H](C)C(=O)N2c2ccc3c(cnn3-c3ccc(F)cc3)c2)c1 (racemic)",
    "endpointResult": "> 7.00"
  },
  {
    "compound": "COc1ccc([C@@H]2[C@@H](NC(=O)c3ccn(C)n3)[C@H](C)C(=O)N2c2ccc3c(cnn3-c3ccc(F)cc3)c2)cc1 (racemic)",
    "endpointResult": "> 7.00"
  },
  {
    "compound": "C[C@@]1(F)C(=O)N(c2ccc3c(cnn3-c3ccc(F)cc3)c2)[C@H](c2ccccc2)[C@H]1NC(=O)C1CC1 (racemic)",
    "endpointResult": "> 7.00"
  },
  {
    "compound": "O=C(N[C@@H]1[C@@H](c2ccccc2)N(c2ccc3c(ccn3-c3ccc(F)cc3)c2)C(=O)C12CC2)C1CC1 (racemic)",
    "endpointResult": "6.00 to 7.00"
  },
  {
    "compound": "CC[C@@H]1[C@@H](NC(=O)c2ncccn2)[C@H](Cc2ccccc2)C(=O)N1c1ccc2c(cnn2-c2ccc(F)cc2)c1 (racemic)",
    "endpointResult": "4.82 to 6.00"
  },
  {
    "compound": "CC[C@@H]1[C@@H](NC(=O)C(C)(F)F)[C@H](Cc2ccccc2)C(=O)N1c1ccc2c(cnn2-c2ccc(F)cc2)c1 (racemic)",
    "endpointResult": "4.82 to 6.00"
  }
]

Value lookup for pIC50; key = C[C@@]1(CC(F)F)C(=O)N(c2ccc3c(cnn3-c3ccc(F)cc3)c2)[C@H](c2ccccc2)[C@H]1NC(=O)C1CC1 (racemic)
> 7.00

What do we get for O=C(N[C@@H]1[C@@H](c2ccccc2)N(c2ccc3c(cnn3-c3ccc(F)cc3)n2)C(=O)C12CC2)C1CC1 (racemic) ?
4.82 to 6.00

Field entry: C[C@@]1(CC2CC2)C(=O)N(c2ccc3c(cnn3-c3ccc(F)cc3)c2)[C@H](c2ccccc2)[C@H]1NC(=O)C1CC1 (racemic)
> 7.00
